# Test system: L1210 leukemia ip in BDF1 mice, survival T/C
# Test description: NCI In Vivo Anticancer Drug Screen. Data for tumor model L1210 Leukemia (intraperitoneal) in B6D2F1 (BDF1) mice
# Condition info: endpoint: mean survival time; dose: 400.0 mg/kg/injection; schedule: Q04DX003 (ip); vehicle: Klucel (hydroxypropylcellulose) (HPC); higher = longer survival
# Procedure: The antitumor activity of compounds was measured in mice bearing transplantable tumors. Survival or tumor size were measured and the results are expressed as the measurement made in the treated group (T) divided by the measurement made in the vehicle treated control group (C). The tumor model used in this assay is L1210 Leukemia (intraperitoneal) in B6D2F1 (BDF1) mice
Inconclusive results and toxic doses are left out.
Reported T/C values for a set of compounds
Endpoint: T/C

- Compound: "O=C1c2ccccc2C(=O)c2c(Cl)ccc(O)c21"
  Endpoint: "T/C"
  Observed result: "96 % of control"
- Compound: "N#CC(=C1c2ccccc2-c2ccccc21)c1ccccc1"
  Endpoint: "T/C"
  Observed result: "98 % of control"
- Compound: "COC1(c2ccccc2)OC(Cc2ccccc2)=NC1(C)C (configuration not stated)"
  Endpoint: "T/C"
  Observed result: "94 % of control"
- Compound: "CC(=O)/C(N=O)=C(/C)O"
  Endpoint: "T/C"
  Observed result: "87 % of control"
- Compound: "O=C1OCCN1S(=O)(=O)c1ccc([N+](=O)[O-])cc1"
  Endpoint: "T/C"
  Observed result: "88 % of control"
- Compound: "CN(C)N=Nc1ccccc1C#N"
  Endpoint: "T/C"
  Observed result: "107 % of control"
- Compound: "CCCCC(CC)COP(=S)(S)OCC(CC)CCCC.[Sn] (configuration not stated)"
  Endpoint: "T/C"
  Observed result: "96 % of control"
- Compound: "CN(C1=NS(=O)(=O)N=C(N(C)c2ccccc2)O1)c1ccccc1"
  Endpoint: "T/C"
  Observed result: "98 % of control"
- Compound: "COC(OC)c1nc(N)nc(N)c1-c1ccccc1"
  Endpoint: "T/C"
  Observed result: "94 % of control"
- Compound: "CCCCN/C(C)=C/C(=O)/C=C(\\C)NCCCC"
  Endpoint: "T/C"
  Observed result: "100 % of control"
- Compound: "COc1cc(C(=O)N/N=C/N(C)C)cc(OC)c1OC"
  Endpoint: "T/C"
  Observed result: "100 % of control"
- Compound: "Cc1ccc(NC(=O)Nc2ccc(S(N)(=O)=O)cc2)c([N+](=O)[O-])c1"
  Endpoint: "T/C"
  Observed result: "88 % of control"
